molecular target: Homeobox protein Hox-A13 (Mus musculus) (UniProt Q62424); experiment: inhibitors of HoxA13-DNA binding, primary screen, biochemical, fluorescence polarization, labeled oligonucleotide (AID 1185); settings: 15 min, higher = more signal, called active from +8 up or from −8 down
Sequence (Q62424 whole entry, looked up): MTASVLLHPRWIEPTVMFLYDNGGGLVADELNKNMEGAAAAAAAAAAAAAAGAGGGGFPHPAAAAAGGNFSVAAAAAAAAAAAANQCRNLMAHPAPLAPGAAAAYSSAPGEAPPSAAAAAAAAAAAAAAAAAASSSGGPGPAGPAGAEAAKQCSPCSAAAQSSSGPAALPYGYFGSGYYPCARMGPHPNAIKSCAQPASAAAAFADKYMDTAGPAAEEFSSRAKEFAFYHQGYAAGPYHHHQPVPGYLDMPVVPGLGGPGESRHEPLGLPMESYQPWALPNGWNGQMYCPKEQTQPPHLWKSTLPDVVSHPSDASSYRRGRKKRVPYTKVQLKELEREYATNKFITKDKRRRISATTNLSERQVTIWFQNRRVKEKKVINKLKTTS
// label = Fulfilled if z-score is not less than -4, otherwise Not fulfilled

Input line: State whether the measured z-score reaches -4, counting equality as reaching it, for CN1C(=O)C2C=CC(C(O)Cc3ccccc3)N(Nc3ccccc3)C2C1=O (configuration not stated)
Output line: Not fulfilled

Input line: Kindly determine if z-score recorded for NC(=O)[C@@H]1[C@H]2C(=O)O[C@H](c3ccccc3)[C@H](c3ccccc3)N2[C@H](c2ccc(O)cc2)[C@@]12C(=O)Nc1ccc(C#CC3(O)CCCCCC3)cc12 is above or exactly -4.
Output line: Fulfilled

Input line: Check this compound for z-score at or above -4: CC(=O)NCCCC[C@@H]1NC(=O)[C@@H]2C[C@H](C(=O)NCCCCCCNC(=O)CS)[C@H](c3cccc(OCCO)c3)N2C1=O
Output line: Not fulfilled

Input line: Check the entry COc1cc2c(cc1O)C(C1CC1)N(Cc1cc3c(cc1Br)OCO3)CC2 (configuration not stated) : does z-score equal or exceed -4?
Output line: Not fulfilled

Others:
Input line: Hello, I need to know if COCCOC(=O)N1C(=O)[C@@]2(c3ccccc31)[C@H](c1ccc(O)cc1)N1[C@H](c3ccccc3)[C@H](c3ccccc3)OC(=O)[C@H]1[C@@H]2C(=O)NC[C@H](O)c1ccccc1 has measured z-score not below -4. Thanks!
Output line: Not fulfilled

Input line: Would you say COc1ccc(CCN2C(=O)[C@@]3(c4ccc([N+](=O)[O-])cc4)CC(=O)N(C4CCCCC4)[C@@H]3c3ccc(CO)cc32)cc1 shows z-score at minimum -4?
Output line: Fulfilled
